Test: Caco-2 membrane permeability, improved method as used in the following Examples (96-well, 20 to 24 h preincubation)
Type: in vitro ADME
Details: human, Caco-2, Caco-2
Starred links: 1 amine or outer side, 2 acyl side, 3 side chain; linkers in the order of their positions; H or OH if unused. Positions of bridges follow the written chain, without caps; N, C: chain ends. Non-standard residues stand in square brackets, D forms with d. Residues, ends and D or L forms follow the SMILES beside them. *: point of attachment. hNle(7,7-F2) = N[C@@H](CCCCC(F)F)C(=O)O; X9 = O=C(CN(CCOc1ccccc1)[*:1])[*:2]; Gly(N-(CH2)2OEt) = CCOCCNCC(=O)O; NMeF = CN[C@@H](Cc1ccccc1)C(=O)O; NMeL = CN[C@@H](CC(C)C)C(=O)O; NMeV = CN[C@H](C(=O)O)C(C)C; NMeAbu = CC[C@H](NC)C(=O)O; NMeA = CN[C@@H](C)C(=O)O; Piperidide = C1CCN(*)CC1; Me2NCH2CH2 = CN(C)CC*; NBuGly = CCCCNCC(=O)O; NPrGly = CCCNCC(=O)O; Sar = CNCC(=O)O; tBu = CC(C)(C)*
Quantity kind: Papp A→B at 180 min (×10⁻⁶ cm/s)
All answers are understood in ×10⁻⁶ cm/s, so give the number only.

Query: Give the measured Papp A→B at 180 min of CCCCN1CC(=O)N(C)[C@@H](C(C)C)C(=O)N[C@H](C(=O)N2CCCCC2)CC(=O)N(C)[C@@H](C)C(=O)N[C@@H](COCCN(C)C)C(=O)N(C)[C@@H](CC(C)C)C(=O)N(C)[C@@H](Cc2ccccc2)C(=O)N[C@@H](CC(C)C)C(=O)N(C)[C@@H](Cc2ccccc2)C(=O)N(C)[C@@H](CC(C)C)C(=O)N[C@@H]([C@@H](C)O)C1=O [pd56] ([NMeA]S(Me2NCH2CH2)[NMeL][NMeF]L[NMeF][NMeL]T[NBuGly][NMeV]D-Piperidide; lactam N-11) .
Response: 0.12

Query: Give the measured Papp A→B at 180 min of CCCN1CC(=O)N(C)[C@@H](Cc2ccccc2)C(=O)N[C@@H](CCCCC(F)F)C(=O)N(C)[C@@H](CC(C)C)C(=O)N[C@@H]([C@@H](C)O)C(=O)N(C)CC(=O)N(C)[C@@H](Cc2ccccc2)C(=O)N(C)[C@@H](CC(C)C)C(=O)N[C@@H](COC(C)(C)C)C(=O)N(C)[C@@H](C(C)C)C(=O)N[C@H](C(=O)N2CCCCC2)CC1=O [pd336] ([NPrGly][NMeF][hNle(7,7-F2)][NMeL]T[Sar][NMeF][NMeL]S(tBu)[NMeV]D-Piperidide; lactam N-11) .
Response: 2.5

Query: Give the measured Papp A→B at 180 min of CCOCCN1CC(=O)N(C)[C@@H](Cc2ccccc2)C(=O)N(C)[C@@H](CC(C)C)C(=O)N[C@@H](COC(C)(C)C)C(=O)N(C)[C@@H](CC(C)C)C(=O)N[C@H](C(=O)N2CCCCC2)CC(=O)N(C)CC(=O)N(C)[C@@H](Cc2ccccc2)C(=O)N[C@@H](C(C)C)C(=O)N(C)[C@@H](CC(C)C)C(=O)N[C@@H]([C@@H](C)O)C1=O [pd418] ([Sar][NMeF]V[NMeL]T[Gly(N-(CH2)2OEt)][NMeF][NMeL]S(tBu)[NMeL]D-Piperidide; lactam N-11) .
Response: 1.5

Query: Give the measured Papp A→B at 180 min of CC[C@H]1C(=O)N(C)[C@@H](Cc2ccccc2)C(=O)N[C@@H](C)C(=O)N(C)[C@@H](CC(C)C)C(=O)N(C)[C@@H](CC)C(=O)N[C@@H]([C@@H](C)O)C(=O)N(CCOc2ccccc2)CC(=O)N(C)[C@@H](CC(C)C)C(=O)N[C@H](C(=O)N2CCCCC2)CC(=O)N(C)[C@@H](C(C)C)C(=O)N[C@@H](CC(C)C)C(=O)N1C [pd420] ([NMeV]L[NMeAbu][NMeF]A[NMeL][NMeAbu]T[X9][NMeL]D-Piperidide; lactam N-11) .
Response: 4.5
